experiment: NCI Yeast Anticancer Drug Screen. Data for the mlh1 rad18 strain (AID 175); conditions: S. cerevisiae mlh1 rad18 strain growth inhibition; at 50.0 µM (retest, dose inferred, filed as 5.0)
The panel holds about 79,000 compounds, 15% with a hit somewhere; the sample as a whole holds those more often. Calls of active or inactive are those of the source. No stated cut-off is given here; in the data, active means growth inhibition above about 70%; inactive means the rest.
Your response should consist of one outcome taken from Y = active, N = inactive

Task: Name the outcome recorded for CCCCN(CCCC)S(=O)(=O)c1ccccc1 in the assay.
Output: N

Task: Call for entry NC(=S)N/N=C1\CCCCc2ccccc21 :
Output: Y

Task: Give the logged outcome of this assay for the following compound: C/C(=N/NC(=O)C[n+]1ccccc1)C(CN(CC(C)C)CC(C)C)C(=O)Nc1ccc(C)cc1C (stereo not given)
Output: N

Task: Each compound tested received a call. Report the one for O=S(=O)(c1cc(Cl)c(Cl)cc1Cl)N(CCCCCN(S(=O)(=O)c1cc(Cl)c(Cl)cc1Cl)S(=O)(=O)c1cc(Cl)c(Cl)cc1Cl)S(=O)(=O)c1cc(Cl)c(Cl)cc1Cl .
Output: N

Task: So what was the verdict on CCCCNc1ncc(OCC)c(NCCCC)n1 in this test?
Output: N

====

experiment: NCI Yeast Anticancer Drug Screen. Data for the mlh1 rad18 strain (AID 175); conditions: S. cerevisiae mlh1 rad18 strain growth inhibition; at 50.0 µM; stronger effect = higher value
This is part of a sample that, as a whole, favours compounds with a hit. Of some 79,000 tested, about 15% had one in any assay.
Task for the reader: assign each of the following molecules its reported growth inhibition.
Your answer is read as %, so omit the unit and give the number.

Task: Read off the recorded growth inhibition for OCC(O)Cc1c(Cl)c(Cl)c(Oc2c(Cl)c(Cl)c(CC(O)CO)c(Cl)c2Cl)c(Cl)c1Cl (stereo not given)
Output: 8.75

Task: Quickly give me recorded growth inhibition for CN(C)CC(C)(CN(C)C)C(=O)/C=C/c1ccc(Cl)c(Cl)c1
Output: 99.6

Task: Quickly give me recorded growth inhibition for CCCCCCCCCCCCCCCC1C(N)C(=O)N(C)N1C (stereo not given)
Output: 90.4

Task: Please give the documented growth inhibition of C[n+]1c(-c2ccc(/C=N/NC(=O)c3ccc(C(=O)N/N=C/c4ccc(-c5cn6ccccc6[n+]5C)cc4)nc3)cc2)cn2ccccc21
Output: 99.1

Task: Give me measured growth inhibition, please, for this molecule: [O-]/[N+](O)=C\c1ccccn1
Output: 37.1

Task: Indicate its recorded growth inhibition; the molecule in question is CCOC(=O)C(Br)c1nc2ccccc2[nH]c1=O (stereo not given)
Output: 92.2

Task: Indicate the recorded growth inhibition value for this molecule: CCCCCCCCCC(C)CC(=O)NCCCN(C)CCCCN(C)C (stereo not given) (tested in a mixture with another compound)
Output: 82.3

Task: Give reported growth inhibition value for CCCCCCCCCC[N+](C)(C)CCC[N+](C)(C)CCCCCCCCCC
Output: 61.8

Task: Please report growth inhibition for the following molecule: COC1(OC)C2(Cl)C(Cl)=C(Cl)C1(Cl)C1C2C2CC1(C(=O)O)c1ccccc12 (stereo not given)
Output: 90.5

Task: Determine from records and report growth inhibition for CC(=O)c1c(-c2ccco2)c(C#N)c(=S)n(C2OC(CO)C(O)C(O)C2O)c1-c1ccccc1 (stereo not given)
Output: 62.6

Task: Determine its reported growth inhibition: CCCCN(CCCC)S(=O)(=O)c1ccccc1
Output: 79

Task: Identify measured growth inhibition associated with Cc1cc(NCCCCCCCNc2cc(C)nc3cc(N)ccc23)c2ccc(N)cc2n1
Output: 91.5

Task: Hello, please tell me recorded growth inhibition for this one: Cc1c(N=Nc2c(S(=O)(=O)O)cc3cc(S(=O)(=O)O)c(N=Nc4c(C)n(C)n(-c5ccccc5)c4=O)c(O)c3c2O)c(=O)n(-c2ccccc2)n1C
Output: -6.6

Task: Let me know recorded growth inhibition for Fc1ccc(NC(=S)SCc2ccccc2)cc1 , thanks.
Output: 78.2

Task: Please supply the value of reported growth inhibition for the item CCc1ccc(/C=C/C(=O)C2CN(CC)CCC2(O)/C=C/c2ccc(CC)cc2)cc1 (stereo not given)
Output: 91.5

Task: Give a short answer stating reported growth inhibition for C[n+]1c(-c2ccc(/C=N/Nc3ccnc(N/N=C/c4ccc(-c5cn6ccccc6[n+]5C)cc4)n3)cc2)cn2ccccc21 .
Output: 99.2

Task: Look up growth inhibition of N/C(CC(=O)NOC(=O)c1ccccc1)=N/OC(=O)c1ccccc1 and report it.
Output: 99.2

Task: Answer with reported growth inhibition of N#CC(C(=O)C(N)=O)c1ccc(Cl)cc1Cl (stereo not given)
Output: 99.2

Task: Give the value of growth inhibition reported for the following: C=CCOC(=O)N(C(=O)OCC=C)C(Cc1ccc(O)cc1)C(=O)NNc1ccccc1 (stereo not given)
Output: 84.3

Task: Quote growth inhibition reported for C/C(=N\NC(=S)Nc1ccc(C)cc1)c1nc2ncccc2[nH]1 please.
Output: 50.9

====

assay: NCI Yeast Anticancer Drug Screen. Data for the cln2 rad14 strain (AID 165);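 further: 0% = growth equal to vehicle treated cultures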; details: S. cerevisiae cln2 rad14 strain, at 50.0 µM (retest, dose inferred, filed as 5.0), stronger effect = higher value
This is part of a sample that, as a whole, favours compounds with a hit. Of some 79,000 tested, about 15% had one in any assay. Where a SMILES comes first, the peptide text is derived from it. The star is where a group is joined. Cbz = O=C(OCc1ccccc1)*; Boc = CC(C)(C)OC(=O)*; OSu = O=C1CCC(=O)N1O*; Bn = c1ccc(C*)cc1
The threshold is inclusive: growth inhibition of exactly 20% counts as Satisfied; values below receive Not satisfied.

Task: Test whether the molecule CCCCCCCCCCCCCCC[C@@H](O)C[N+](C)(C)CCO records growth inhibition of 20% or higher.
Output: Satisfied

Task: Check the entry O=[N+]([O-])c1ccc2c(c1)Cc1cc(Cl)ccc1-2 : does growth inhibition equal or exceed 20%?
Output: Not satisfied

Task: hey, is growth inhibition for this one >= 20%? CC1=C[P+](c2ccccc2)(c2ccccc2)C=C(c2ccccc2)O1
Output: Satisfied

Task: Does the molecule Oc1ccc(O)c2nc3ccccc3nc12 have recorded growth inhibition that is 20% or more?
Output: Satisfied

Task: Decide: is the reported value of growth inhibition for Cc1ccc(NC(=O)CCCC(=O)C(C#N)c2ccccc2C)cc1C (stereo not given) equal to or greater than 20%?
Output: Not satisfied

Task: API: above_or_equal(metric=growth inhibition, cutoff=20%) for item COc1ccc(/C=N/Nc2cc(C)nc3cc4c(cc23)OCO4)c2ccccc12
Output: Satisfied

Task: Threshold query (growth inhibition >= 20%) on Cc1ccc(N2CC3CC4(C)C=CC3(C2)O4)cc1 (stereo not given)
Output: Not satisfied

Task: Reported growth inhibition at or above 20%? Nc1cc(Br)c2cccnc2c1O
Output: Satisfied

Task: Evaluate O=NN(CCCl)C(=O)Nc1cc(=O)[nH]c(SCc2ccccc2)n1 : growth inhibition at minimum 20%?
Output: Not satisfied

Task: For this molecule, is measured growth inhibition 20% or higher? CC(=O)/C(=C\c1ccc(N(C)C)cc1)C(C)=[N+](C)C(=O)c1c(/[N+](C)=C(C)\C(=C\c2ccc(N(C)C)cc2)C(C)=O)ncn1C
Output: Satisfied

Task: Check this molecule for growth inhibition at or above 20%: Cc1ccc(N2C(=O)CSC2=S)cc1Br
Output: Not satisfied

Task: Please tell me: is the molecule Nc1cc(Cl)ccc1S at or over 20% in terms of growth inhibition?
Output: Satisfied

Task: Decide: growth inhibition of Cc1ccc(S(=O)(=O)CC2(Br)CCc3ccccc3C2=O)cc1 (stereo not given) >= 20%?
Output: Not satisfied

Task: Reported growth inhibition at or above 20%? CCCCCC(O)C(C)CO (stereo not given)
Output: Not satisfied

Task: Say whether Cc1cccc(/C=N/Nc2cc(C)nc3ccccc23)n1 shows growth inhibition of 20% or more.
Output: Satisfied

Task: growth inhibition >= 20% for CCCCC#C[I+]c1ccccc1 ?
Output: Satisfied

Task: Could you please find out whether O=c1cc(N=Nc2ccc(Cl)c(Cl)c2)[nH]c(=O)[nH]1 has growth inhibition that meets 20% or exceeds it?
Output: Satisfied

Task: Given Fc1ccc(C2SCc3nc4ccccc4n32)cc1Cl (stereo not given) , state whether its growth inhibition is at least 20%.
Output: Satisfied

Task: State whether the measured growth inhibition reaches 20%, counting equality as reaching it, for O=C1C(c2ccccc2)=[N+]([O-])c2cc([N+](=O)[O-])c(/C(Cl)=C/c3ccccc3)cc21
Output: Not satisfied

Task: // inclusive: growth inhibition at least 20%? input: CC(=O)Oc1c2c(c(C)c3ccccc13)C(=O)c1cccnc1C2=O
Output: Not satisfied

Task: Test whether the molecule CC(C)(C)OC(=O)NC(Cc1ccc(OCc2ccccc2)cc1)C(=O)NC(CCCCNC(=O)OCc1ccccc1)C(=O)ON1C(=O)CCC1=O (stereo not given) (Boc-Tyr(Bn)-Lys(Cbz)-OSu; configuration not given here) records growth inhibition of 20% or higher.
Output: Satisfied

Task: # check: growth inhibition of Clc1ccc(/C(=C/c2ccccc2)Cn2ccnc2)cc1 is greater than or equal to 20%
Output: Satisfied

Task: Determine whether measured growth inhibition meets or exceeds 20% for COc1ccc(OC)c(CC(Cl)(C#N)C#N)c1
Output: Satisfied

Task: For this molecule, is measured growth inhibition 20% or higher? CCCCCCCCCCCCNC(=O)C[n+]1ccc(C(N)=O)cc1
Output: Satisfied

Task: Has CN1COc2c(Cl)cc(Cl)cc2C1 a recorded growth inhibition greater than or equal to 20%?
Output: Satisfied

Task: Could you please find out whether COC(=O)Nc1nc2ccc(C(C)(O)c3cccs3)cc2[nH]1 (stereo not given) has growth inhibition that meets 20% or exceeds it?
Output: Satisfied

Task: Exam item: decide whether the reported growth inhibition for Cc1ccc2cccc(N)c2c1 is at least 20%.
Output: Not satisfied

Task: Is the recorded value of growth inhibition equal to or greater than 20% for this molecule? CC(=O)Oc1ccc(C23CC4CC(CC(C4)C2)C3)cc1
Output: Satisfied

Task: Quick check: does C/C(=N\NC(=S)N1CC(C)OC(C)C1)c1ncccn1 (stereo not given) have growth inhibition greater than or equal to 20%?
Output: Satisfied

Task: API: above_or_equal(metric=growth inhibition, cutoff=20%) for item CCCCCCCCCC(C)CC(=O)NCCCN(C)CCCCN(C)C (stereo not given) (tested in a mixture with another compound)
Output: Satisfied

Task: Is growth inhibition at least 20%? Consider CC(C)c1ccc2c(c1)CC[C@H]1[C@](C)(C(=O)O)CCC[C@]21C
Output: Satisfied

Task: Check the entry C=Cc1cc(O)cc2c1-c1ccc(O)c(C)c1CC2 : does growth inhibition equal or exceed 20%?
Output: Satisfied

Task: Decide: is the reported value of growth inhibition for COc1ccc(C2=Nc3cc(C)c(C)cc3NC(c3ccccc3)C2)cc1 (stereo not given) equal to or greater than 20%?
Output: Not satisfied

Task: Is reported growth inhibition greater than or equal to 20% here: COC(=O)/C(=N\NC(=O)c1ccccc1O)C(C#N)c1ccc(Cl)cc1 (stereo not given)
Output: Satisfied

Task: Could you tell me if the measured growth inhibition of O=C1c2ccccc2C(=O)c2c(/C=C\N3CCCCC3)ccnc21 reaches 20% or more?
Output: Satisfied

Task: Textbook exercise: given the entry CC(=O)Oc1ccc2cc(-c3ccccc3OC(C)=O)c(=O)oc2c1 , state whether its growth inhibition is greater than or equal to 20%.
Output: Satisfied

Task: Reported growth inhibition reaches at least 20% for Cc1cc(Br)cc(C)c1NC(=O)C(=O)C(C(=O)c1ccc2ccccc2c1)C1OC(=O)c2ccccc21 (stereo not given) ?
Output: Not satisfied

Task: Decide: growth inhibition of Cc1c2ccccc2c(C)n2c1nc1cc(Cl)c(Cl)cc12 >= 20%?
Output: Satisfied

Task: Assess whether reported growth inhibition for Nc1ncnc2c1c(-c1ccccc1)cn2-c1ccc(I)cc1 sits at 20% or higher.
Output: Not satisfied

Task: For this molecule, is measured growth inhibition 20% or higher? O=C(CCC1OCCO1)Nc1cc(NCc2ccccc2)ccc1OCc1ccccc1
Output: Not satisfied

Task: Hello, I need to know if Cn1cnc([N+](=O)[O-])c1S has measured growth inhibition not below 20%. Thanks!
Output: Not satisfied

Task: For this molecule, is measured growth inhibition 20% or higher? c1ccc([P+](c2ccccc2)(c2ccccc2)C2c3ccccc3-c3ccccc32)cc1
Output: Satisfied

Task: Is reported growth inhibition greater than or equal to 20% here: CCOC(=O)Cc1csc2[n+]1C(=O)/C(=C\c1cccc(Cl)c1Cl)S2
Output: Satisfied

Task: Reported growth inhibition reaches at least 20% for COc1ccc(C2NCc3c(sc4c3CCCC4)-n3cccc32)cc1 (stereo not given) ?
Output: Satisfied

Task: Determine whether this molecule has growth inhibition no lower than 20%: CC(C)(COC(=O)Nc1cccc(Cl)c1)[N+](=O)[O-]
Output: Not satisfied
